Measured cAMP EC50 (1.0% HSA) accompanies every entry in the list below.
# SYSTEM_UNDER_TEST: T1, human GIP receptor (human, UniProt P48546 22-466)
# T1 sequence (looked up): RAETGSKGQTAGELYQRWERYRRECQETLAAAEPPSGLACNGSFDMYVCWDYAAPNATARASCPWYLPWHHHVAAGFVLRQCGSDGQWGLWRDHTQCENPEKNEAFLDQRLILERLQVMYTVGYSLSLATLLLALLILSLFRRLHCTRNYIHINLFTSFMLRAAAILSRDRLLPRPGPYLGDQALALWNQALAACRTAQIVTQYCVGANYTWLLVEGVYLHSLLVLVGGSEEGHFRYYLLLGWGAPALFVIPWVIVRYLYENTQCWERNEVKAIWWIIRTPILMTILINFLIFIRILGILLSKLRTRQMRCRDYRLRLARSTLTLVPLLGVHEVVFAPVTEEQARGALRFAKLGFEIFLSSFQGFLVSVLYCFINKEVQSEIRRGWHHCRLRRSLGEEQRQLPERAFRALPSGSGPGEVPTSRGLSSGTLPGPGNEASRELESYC
# PROTOCOL_DESCRIPTION: cell-based or functional assay
*1 amine or outer side, *2 acyl side, *3 side chain or, on linkers, in order; H or OH if unused. Where no end group is shown, it is not given here. Side-chain parts run from the residue outwards. [ ]: non-standard residue; d: D form. The star is where a group is joined. αMePhe(2-F) = C[C@](N)(Cc1ccccc1F)C(=O)O; γGlu = O=C(O)[C@H](CCC(=O)[*:2])N[*:1]; C14 diacid = O=C(O)CCCCCCCCCCCCC(=O)*; αMeY = C[C@](N)(Cc1ccc(O)cc1)C(=O)O; αMeL = CC(C)C[C@](C)(N)C(=O)O; Orn = NCCC[C@H](N)C(=O)O; AEEA = NCCOCCOCC(=O)O; Aib = CC(C)(N)C(=O)O
// units = nM; emit number, no label

>>> obs_value("YXEGTXTSDXXIXLDXIAQXKFIXXLIEGGPSSGAPPPSK (Y-Aib-EGT-αMeF(2F)-TSD-4Pal-Aib-I-αMeL-LD-Orn-IAQ-Aib-K((2-[2-(2-Amino-ethoxy)-ethoxy]-acetyl)2-(γ-Glu)-(10-(4-carboxyphenoxy)decanoyl))FI-(D-Glu)-αMeY-LIEGGPSSGAPPPSK((2-[2-(2-Amino-ethoxy)-ethoxy]-acetyl)2-(γ-Glu)-(10-(4-carboxyphenoxy)decanoyl))-NH2) [Example 248]")
4.1

Please examine the following record next.
Quick one: cAMP EC50 (1.0% HSA) of Y[Aib]EGT[αMePhe(2-F)]TSDV[Aib]I[αMeL]LD[Orn]IAQ[Aib][Orn]FIK([AEEA-AEEA-γGlu-C14 diacid])[αMeY]LIK([AEEA-AEEA-γGlu-C14 diacid])GGPSSGAPPPS-NH2 [Example 317] ?
2.03
